B1: EF-hand domain-containing protein 1 (Homo sapiens), Q5JVL4 (parent)
chain: MVSNPVHGLPFLPGTSFKDSTKTAFHRSQTLSYRNGYAIVRRPTVGIGGDRLQFNQLSQAELDELASKAPVLTYGQPKQAPPADFIPAHVAFDKKVLKFDAYFQEDVPMSTEEQYRIRQVNIYYYLEDDSMSVIEPVVENSGILQGKLIKRQRLAKNDRGDHYHWKDLNRGINITIYGKTFRVVDCDQFTQVFLESQGIELNPPEKMALDPYTELRKQPLRKYVTPSDFDQLKQFLTFDKQVLRFYAIWDDTDSMYGECRTYIIHYYLMDDTVEIREVHERNDGRDPFPLLMNRQRVPKVLVENAKNFPQCVLEISDQEVLEWYTAKDFIVGKSLTILGRTFFIYDCDPFTRRYYKEKFGITDLPRIDVSKREPPPVKQELPPYNGFGLVEDSAQNCFALIPKAPKKDVIKMLVNDNKVLRYLAVLESPIPEDKDRRFVFSYFLATDMISIFEPPVRNSGIIGGKYLGRTKVVKPYSTVDNPVYYGPSDFFIGAVIEVFGHRFIILDTDEYVLKYMESNAAQYSPEALASIQNHVRKREAPAPEAESKQTEKDPGVQELEALIDTIQKQLKDHSCKDNIREAFQIYDKEASGYVDRDMFFKICESLNVPVDDSLVKELIRMCSHGEGKINYYNFVRAFSN
partner: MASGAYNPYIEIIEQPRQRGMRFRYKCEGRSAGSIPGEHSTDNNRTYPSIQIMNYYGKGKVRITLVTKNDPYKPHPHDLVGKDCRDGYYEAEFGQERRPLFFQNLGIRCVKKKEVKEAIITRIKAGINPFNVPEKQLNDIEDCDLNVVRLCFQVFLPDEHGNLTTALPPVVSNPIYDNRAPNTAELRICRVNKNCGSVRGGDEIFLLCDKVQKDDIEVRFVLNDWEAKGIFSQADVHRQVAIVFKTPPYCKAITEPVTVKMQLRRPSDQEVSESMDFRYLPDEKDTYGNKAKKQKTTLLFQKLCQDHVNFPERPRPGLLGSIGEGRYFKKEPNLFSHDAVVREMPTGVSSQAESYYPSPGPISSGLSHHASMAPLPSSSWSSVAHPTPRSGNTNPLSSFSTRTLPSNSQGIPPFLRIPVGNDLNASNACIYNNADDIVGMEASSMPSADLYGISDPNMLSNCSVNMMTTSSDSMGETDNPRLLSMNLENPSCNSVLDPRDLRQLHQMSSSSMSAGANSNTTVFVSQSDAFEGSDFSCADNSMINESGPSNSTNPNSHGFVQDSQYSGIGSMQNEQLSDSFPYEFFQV

Variants of: B1
Settings: with REL

mutation-list	effect of a mutation on the interaction
R159W	with no effect
M448T	with no effect
